tested on: HL-60; assay: NCI tumour cell line growth inhibition, 48 h
Active and inactive are the calls of the source. Cut-off read from the data, not from the text of the source: active = GI50 up to about 1.1 µM and inactive = higher.
Give your call using only these classes: active, inactive

Some solved entries appear below for comparison.
| compound | label.value |
| --- | --- |
| COc1cc(C2c3[nH]c4ccc(F)cc4c3C[C@H]3COC(=O)N23)cc(OC)c1O (some centres undefined) | inactive |
| Cc1c(S(=O)(=O)N/C(=N\O)Nc2ccc(Cl)c(Cl)c2)sc2ccc(Cl)cc12 | inactive |
| c1ccc2c(c1)c1c(n2CCOCCN2CCCCC2)CCCC1 | inactive |

Exercise: Give the logged outcome of this assay for the following compound: `CC1=C[C@@H](C)C[C@]2(C)CC[C@H](O2)[C@]23CC[C@](C)(C[C@H](O2)[C@@H]2O[C@@](C)(CC2=O)[C@@H](O)[C@H]2CC[C@@]4(CCC[C@@H](O4)[C@H](C)C(=O)O[C@H]4C[C@H]([C@]5(O)OCC[C@H](C)[C@@H]5O)O[C@H]4C=C1)O2)O3`
Solution: active

Exercise: Lab log entry: `O=C(CC(=O)Nc1cccc(Cl)c1)NNCC(=O)Nc1nnc(-c2ccccc2)s1` — outcome as called in the assay?
Solution: inactive

Exercise: Recorded test call requested for CNC(=O)c1ccccc1-[s+]1c2ccccc2c(=O)n1C (centres undefined)
Solution: inactive

Exercise: Entry `CN(CCCCN(C)CCc1ccc(Cl)c(Cl)c1)CCCCN1CCCC1` : call = ?
Solution: inactive

Recorded values, source ChEMBL document CHEMBL1201862.
